Method: in vitro
Condition description: human, hela cells, % viability
Reported metric: viability at 28.5 h, 10 µM (%)
Numeric answer only, unit % assumed.

O=c1[nH]c2ccc(Cl)cc2c(-c2ccccc2)c1N1CCN(Cc2ccc3c(c2)OCO3)CC1: 92.3
Cn1cnnc1SCCNC(=O)N1CCc2sccc2C1: 97.3
O=C(Nc1cccc(C(F)(F)F)c1)c1c(O)c2ccccc2[nH]c1=O: 93.2
CCc1nnc(NS(=O)(=O)c2ccc(NCc3cc(Cl)ccc3O)cc2)s1: 100

Exercise: Specify measured viability at 28.5 h, 10 µM for `Cc1nc2ncc(-c3ccccc3C(=O)N(C(C)C)C(C)C)cn2n1` .
Key: 84.1

Exercise: Specify measured viability at 28.5 h, 10 µM for `Cc1cc2c(cc1NC(=O)[C@@H]1C[C@@H]3C=C[C@H]1C3)n(C)c(=O)n2C` .
Key: 106
